Record form. Attribute: λEm b, spectra assays data. Fill in for each entry.
assay.notes: Photophysical property characterization (absorption/emission spectra, quantum yield)
Assay type: physicochemical
condition.set: acetonitrile (MeCN), 10 µM, Extended Data Table 1
Note: unit nm is implicit; provide only the numeric part.

Prompt: For the compound Cc1ccc(Cl)cc1NC(=O)c1cc2c(=O)n3cccc(C)c3nc2n1C [B3] , what λEm b, spectra assays data is on record?
Response: 443

Prompt: For the compound Cn1c(C(=O)Nc2ccc(OC(F)(F)F)cc2)cc2c(=O)n3ccccc3nc21 [B5] , what λEm b, spectra assays data is on record?
Response: 450

Prompt: For the compound COC1=CC(c2cc3ccccc3[nH]2)=N/C1=C\c1[nH]c(C)cc1C [obatoclax] , what λEm b, spectra assays data is on record?
Response: 540

Prompt: For the compound Cc1ccc(-n2c(/C=C\c3ccc(F)c(F)c3)nc3ccccc3c2=O)c(C)c1 [B6] , what λEm b, spectra assays data is on record?
Response: 450
